# Test Target: Thrombin receptor (Homo sapiens)
# Construct: Platelet membranes were prepared using a modification of the method of Natarajan et al; tissue North Jersey Blood Center (East Orange, N.J.)
# Sequence (P25116 22-425): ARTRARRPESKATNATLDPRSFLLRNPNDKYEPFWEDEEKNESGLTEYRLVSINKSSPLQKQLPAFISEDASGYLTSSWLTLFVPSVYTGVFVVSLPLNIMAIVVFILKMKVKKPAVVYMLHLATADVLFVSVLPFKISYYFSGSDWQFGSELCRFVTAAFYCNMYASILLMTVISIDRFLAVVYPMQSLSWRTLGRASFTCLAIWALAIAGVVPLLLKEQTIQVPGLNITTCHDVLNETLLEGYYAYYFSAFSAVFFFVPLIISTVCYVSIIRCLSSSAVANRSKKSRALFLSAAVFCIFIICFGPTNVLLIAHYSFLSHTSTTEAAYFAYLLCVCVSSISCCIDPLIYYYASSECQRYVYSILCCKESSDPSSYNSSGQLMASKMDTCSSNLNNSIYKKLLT
# Protocol Description: In vitro Thrombin Receptor Antagonist Assay ([3H]haTRAP radioligand binding, platelet membranes)
# Stated Conditions: [3H]haTRAP 10 nM, read-out: IC50 (concentration at which a 50% inhibition of thrombin receptor was observed)
Readout: IC50 (nM)

Cc1cc(C)nc(/C=C/[C@@H]2[C@H]3CCCC[C@@H]3C[C@@H]3C(=O)O[C@@H](C)[C@H]23)c1 [Example 1A]	1600
Cc1ccccc1-c1ccc(/C=C/[C@H]2[C@@H]3CCCC[C@H]3C[C@H]3C(=O)O[C@H](C)[C@@H]23)nc1 [Example 1DK]	14
CNC(=O)C1Cc2ccccc2C(C=Cc2ccc(-c3cccc(C(F)(F)F)c3)cn2)C1CO (stereo not shown) [Example 7]	1140
Cc1cccc(/C=C/[C@H]2[C@H]3[C@H](C)OC(=O)[C@H]3C=C3CCCC[C@@H]32)n1 [Example 2E]	350
C[C@H]1OC(=O)[C@@H]2C[C@@H]3CCCC[C@H]3[C@H](/C=C/c3ccc4cc(O)ccc4n3)[C@H]12 [Example 1BN]	6

1 = O=C1OCC2C1Cc1ccccc1C2C=Cc1ccc(-c2cccc(C(F)(F)F)c2)cn1 (stereo not shown) [Example 3K]
2 = C[C@H]1OC(=O)[C@@H]2C[C@@H]3CCCC[C@H]3[C@H](/C=C/c3ccc(-c4cc(C(F)(F)F)cc(C(F)(F)F)c4)cn3)[C@H]12 [Example 1ES]
Would you let me know which has the greater IC50 value, 1 or 2 ? Answer by quoting the chosen item's label. 1
